Data provenance is patent US20240190880A1.

# DC50 per record follows
# Tested system: ER (Homo sapiens, UniProt P03372)
# Construct: host or cells: T47D and MCF7 human breast cancer cells
# Sequence (P03372 1-595): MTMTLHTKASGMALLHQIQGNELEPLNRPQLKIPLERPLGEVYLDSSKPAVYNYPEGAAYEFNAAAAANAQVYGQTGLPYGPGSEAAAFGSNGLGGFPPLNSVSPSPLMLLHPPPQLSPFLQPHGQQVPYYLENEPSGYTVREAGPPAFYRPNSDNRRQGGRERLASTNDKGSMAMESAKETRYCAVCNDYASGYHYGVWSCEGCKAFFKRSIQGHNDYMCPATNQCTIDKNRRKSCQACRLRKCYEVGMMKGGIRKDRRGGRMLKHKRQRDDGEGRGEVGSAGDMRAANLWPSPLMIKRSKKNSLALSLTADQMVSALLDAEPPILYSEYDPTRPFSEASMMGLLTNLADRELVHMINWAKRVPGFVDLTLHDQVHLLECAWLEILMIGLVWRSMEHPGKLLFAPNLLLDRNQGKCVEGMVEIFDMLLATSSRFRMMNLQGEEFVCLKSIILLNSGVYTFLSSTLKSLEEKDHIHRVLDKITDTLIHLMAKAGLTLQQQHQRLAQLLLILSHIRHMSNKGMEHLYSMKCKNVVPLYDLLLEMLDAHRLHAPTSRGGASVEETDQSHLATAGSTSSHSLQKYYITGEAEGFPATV
# Protocol summary: ER degradation activity, in-cell western blot analysis in T47D cells
# Type: cell-based
# Condition summary: compounds 16 hours, Table A does not say whether T47D or MCF7, read-out: Potency (DC50)

Compound	DC50
O=C1CCC(N2C(=O)c3cc4c(cc3C2=O)CN(CC(=O)N2CCC(Oc3ccc([C@@H]5c6ccc(O)cc6CC[C@@H]5c5ccccc5)cc3)CC2)C4)C(=O)N1 (some centres unmarked)	10 to 100 nM
C[C@@H]1Cc2c(ccc3[nH]ncc23)[C@@H](c2c(F)cc(N3CCC(C(=O)N4C5CCC4CC(N4Cc6cc7c(cc6C4)C(=O)N(C4CCC(=O)NC4=O)C7=O)C5)CC3)cc2F)N1CC(F)F (some centres unmarked)	10 to 100 nM
C[C@@H]1Cc2c(ccc3[nH]ncc23)[C@@H](c2c(F)cc(NC3CN(C(=O)[C@H]4CC[C@@H](N5Cc6cc7c(cc6C5)C(=O)N(C5CCC(=O)NC5=O)C7=O)CC4)C3)cc2F)N1CC(F)F (some centres unmarked)	10 to 100 nM

Data request, read-out DC50, for C[C@@H]1Cc2c([nH]c3ccccc23)[C@@H](c2c(F)cc(C3=CCC4(CC3)CCN(C(=O)CN3Cc5cc6c(cc5C3)C(=O)N(C3CCC(=O)NC3=O)C6=O)CC4)cc2F)N1CC(F)F (some centres unmarked)
10 to 100 nM

Note, next up: COc1c2c(cc3c1CN(C1CCC(=O)NC1=O)C3=O)CN(CC(=O)N1CCC3(CC1)CCN(c1cc(F)c([C@@H]4c5[nH]c6ccccc6c5C[C@@H](C)N4CC(F)F)c(F)c1)CC3)C2 (some centres unmarked)
< 10 nM

Can you check C[C@@H]1Cc2cc(O)ccc2[C@@H](c2c(F)cc(N3CCC(CN4CCC(N5Cc6cc7c(cc6C5)C(=O)N(C5CCC(=O)NC5=O)C7=O)CC4)CC3)cc2F)N1CC(F)F (some centres unmarked) next?
> 100 nM

// same read-out, input: COc1nc(C2CCC(C(=O)N3CCC(N4Cc5cc6c(cc5C4)C(=O)N(C4CCC(=O)NC4=O)C6=O)CC3)CC2)ccc1[C@@H]1c2[nH]c3ccccc3c2C[C@@H](C)N1CC(F)F (some centres unmarked)
> 100 nM

And then C[C@@H]1Cc2c([nH]c3ccccc23)[C@@H](c2c(F)cc(C3CCC4(CC3)CCN(C(=O)CN3Cc5cc6c(cc5C3)C(=O)N(C3CCC(=O)NC3=O)C6=O)CC4)cc2F)N1CC(F)F (some centres unmarked) , what is it?
10 to 100 nM
